system: DAN-G (Pancreatic Carcinoma); assay: Bliss excess, mean over the matrix (fraction); higher = more synergy;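 note: after 72 h of two-drug dosing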
Known Bliss excess of a selection of compounds

compound | Bliss excess
Cc1c2c(nn1C)CSCc1cc(n(C)n1)CSc1cc(c3ccccc3c1)OCCCc1c(C(=O)O)n(C)c3c-2c(Cl)ccc13 [AZD5991] + Cc1cc2ncnn2cc1Nc1ncc2c(n1)n(C1CCOCC1)c(=O)n2C [AZD7648] (first compound max 1 µM, 7x7, partner max 10 µM) | -0.0402
CN(C)CCCOc1ccc(-c2ccc3ncc4c(c3c2)n(C2CCOCC2)c(=O)n4C)cn1 [AZD0156] + C=CCn1c(=O)c2cnc(Nc3ccc(N4CCN(C)CC4)cc3)nc2n1-c1cccc(C(C)(C)O)n1 [AZD1775] (first compound max 1 µM, partner max 1 µM) | -0.0064
CN(CCO)CC[C@H](CSc1ccccc1)Nc1ccc(S(=O)(=O)NC(=O)c2ccc(N3CCC([C@@H](O)c4ccccc4-c4ccc(Cl)cc4)CC3)cc2)cc1S(=O)(=O)C(F)(F)F [AZD4320] + Cn1cnc2c(F)c(Nc3ccc(Br)cc3Cl)c(C(=O)NOCCO)cc21 [Selumetinib] (first compound max 1 µM, 7x7, partner max 3 µM) | 0.04
COc1cccc(OCCCN)c1-c1cc(Nc2cnc(C#N)cn2)n[nH]1 [Prexasertib] + C=CCn1c(=O)c2cnc(Nc3ccc(N4CCN(C)CC4)cc3)nc2n1-c1cccc(C(C)(C)O)n1 [AZD1775] (first compound max 1 µM, partner max 1 µM) | -0.0093

----------
test system: HCC1187 (Breast Carcinoma); assay: combination Emax (second highest fraction inhibited in the dose matrix, 72 h); higher = more inhibition; extreme values may be limits of the assay
combination Emax class ranges: bin 0 = under 0.3, bin 1 = from 0.3 up to 0.7, bin 2 = 0.7 and over

molecule | label.class
C[C@@H](c1ccc2nccn2c1)n1nnc2ncc(-c3cnn(C)c3)nc21 [Savolitinib] + CC1(C)CCC(CN2CCN(c3ccc(C(=O)NS(=O)(=O)c4ccc(NCC5CCOCC5)c([N+](=O)[O-])c4)c(Oc4cnc5[nH]ccc5c4)c3)CC2)=C(c2ccc(Cl)cc2)C1 [Venetoclax] (first compound max 1 µM, 7x7, partner max 1 µM) | bin 0
COc1nnc2ccc(N3CCC(c4ccc(OCCN5CCN(C)C(=O)[C@H]5C)cc4)CC3)nn12 [AZD5153] + Cn1cnc2c(F)c(Nc3ccc(Br)cc3Cl)c(C(=O)NOCCO)cc21 [Selumetinib] (first compound max 1 µM, 7x7, partner max 10 µM) | bin 1
CN(CCO)CC[C@H](CSc1ccccc1)Nc1ccc(S(=O)(=O)NC(=O)c2ccc(N3CCC([C@@H](O)c4ccccc4-c4ccc(Cl)cc4)CC3)cc2)cc1S(=O)(=O)C(F)(F)F [AZD4320] + C[C@@H]1COCCN1C2=NC(=NC(=C2)C3(CC3)[S@](=N)(=O)C)C4=C5C=CNC5=NC=C4 [AZD6738] (first compound max 1 µM, 7x7, partner max 10 µM) | bin 1
COc1cccc(OCCCN)c1-c1cc(Nc2cnc(C#N)cn2)n[nH]1 [Prexasertib] + CN(C)CCCOc1ccc(-c2ccc3ncc4c(c3c2)n(C2CCOCC2)c(=O)n4C)cn1 [AZD0156] (first compound max 1 µM, 7x7, partner max 1 µM) | bin 1
COc1cccc2c1C(=O)c1c(O)c3c(c(O)c1C2=O)C[C@@](O)(C(=O)CO)C[C@@H]3O[C@H]1C[C@H](N)[C@H](O)[C@H](C)O1 [Doxorubicin] + Cc1cc2ncnn2cc1Nc1ncc2c(n1)n(C1CCOCC1)c(=O)n2C [AZD7648] (first compound max 1 µM, 7x7, partner max 10 µM) | bin 2
COc1nnc2ccc(N3CCC(c4ccc(OCCN5CCN(C)C(=O)[C@H]5C)cc4)CC3)nn12 [AZD5153] + CCN(CCO)CCCOc1ccc2c(Nc3cc(CC(=O)Nc4cccc(F)c4)[nH]n3)ncnc2c1 [AZD2811] (first compound max 1 µM, 7x7, partner max 1 µM) | bin 2
C[C@@H](c1ccc2nccn2c1)n1nnc2ncc(-c3cnn(C)c3)nc21 [Savolitinib] + Cc1c2c(nn1C)CSCc1cc(n(C)n1)CSc1cc(c3ccccc3c1)OCCCc1c(C(=O)O)n(C)c3c-2c(Cl)ccc13 [AZD5991] (first compound max 1 µM, 7x7, partner max 1 µM) | bin 2
COc1cccc(OCCCN)c1-c1cc(Nc2cnc(C#N)cn2)n[nH]1 [Prexasertib] + C=CCn1c(=O)c2cnc(Nc3ccc(N4CCN(C)CC4)cc3)nc2n1-c1cccc(C(C)(C)O)n1 [AZD1775] (first compound max 1 µM, partner max 1 µM) | bin 2
Cn1cnc2c(F)c(Nc3ccc(Br)cc3Cl)c(C(=O)NOCCO)cc21 [Selumetinib] + CC(C)n1c(=O)n(C)c2cnc3cc(F)c(-c4ccc(OCCCN5CCCCC5)nc4)cc3c21 [AZD1390] (first compound max 10 µM, 7x7, partner max 0.3 µM) | bin 0
NC1(C(=O)N[C@@H](CCO)c2ccc(Cl)cc2)CCN(c2ncnc3[nH]ccc23)CC1 [Capivasertib] + COc1nnc2ccc(N3CCC(c4ccc(OCCN5CCN(C)C(=O)[C@H]5C)cc4)CC3)nn12 [AZD5153] (first compound max 10 µM, 7x7, partner max 1 µM) | bin 1
C[C@@H](c1ccc2nccn2c1)n1nnc2ncc(-c3cnn(C)c3)nc21 [Savolitinib] + CN(CC[C@H](CSC1=CC=CC=C1)NC2=C(C=C(C=C2)S(=O)(=O)NC(=O)C3=CC=C(C=C3)N4CCC(CC4)[C@H](C5=CC=CC=C5C6=CC=C(C=C6)Cl)O)S(=O)(=O)C(F)(F)F)CCO [AZD4320] (first compound max 1 µM, 7x7, partner max 1 µM) | bin 0
Cc1cc2ncnn2cc1Nc1ncc2c(n1)n(C1CCOCC1)c(=O)n2C [AZD7648] + C[C@@H]1COCCN1C2=NC(=NC(=C2)C3(CC3)[S@](=N)(=O)C)C4=C5C=CNC5=NC=C4 [AZD6738] (first compound max 10 µM, 7x7, partner max 10 µM) | bin 0

These data points were gathered from the supplement of paper PMC11061612.
